self-cleavage kobs at 40 uM GlcN6P by entry:
B1: glmS ribozyme (parent)
chain: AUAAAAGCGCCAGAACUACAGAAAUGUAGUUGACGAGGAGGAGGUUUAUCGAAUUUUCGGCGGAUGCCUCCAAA

- Variants of: B1
- test-method-notes: self-cleavage kobs at 40 uM GlcN6P; higher = faster cleavage; RNA array
- stated-conditions: with glucosamine-6-phosphate
Fewer inactive variants are shown than the library holds.

Illustrative cases are given below, each with its answer.
variant-spec	self-cleavage kobs at 40 uM GlcN6P
U45A U65G	5.91e-05 s⁻¹
C11G C58U G59U	< 1e-05 s⁻¹

Asked: Query: self-cleavage kobs at 40 uM GlcN6P; subject: C8A U31A
Given back: < 1e-05 s⁻¹

Asked: Now the variant C11G U55C
Given back: < 1e-05 s⁻¹

Asked: Now the variant G7C U46G C67G
Given back: < 1e-05 s⁻¹
